- assay.notes: in vitro
- condition.info: rat, gh3-tre-luc cells, AC50 (uM) modified / 1000, Tox21_110001=Tox21_113359; viability, 1 nM T3 present, 24 h

- compound: "CCOP(=S)(OCC)SCSc1ccc(Cl)cc1 [Carbophenothion]"
  CC50 at 24 h: "> 50 µM"

###

- System: GH3-TRE-Luc cell line
- condition.info: read-out: AC50 (uM) modified / 1000; Tox21_110001=Tox21_201093; viability, 1 nM T3 present, 24 h

- compound: "Cc1cc(C(C)(C)C)c(O)c(C(C)(C)C)c1 [Butylated hydroxytoluene]"
  target.system: "GH3-TRE-Luc cell line"
  CC50: "76.4 µM"

###

- assay.notes: in vitro
- condition.info: rat, gh3-tre-luc cells, AC50 (uM) modified / 1000, Tox21_110001=Tox21_200709; viability, 1 nM T3 present, 24 h

- compound: "OCC(Br)CBr (stereo not shown)"
  CC50 at 24 h: "> 90 µM"

###

Each record here notes measured CC50 at 24 h.
- assay.notes: in vitro
- condition.info: rat, gh3-tre-luc cells, AC50 (uM) modified / 1000
Counter-ions that a name gives are not always drawn.

- compound: "OCC(O)CN1CCN(c2ccccc2)CC1 (centres unmarked) [Dropropizine]"
  uom: "µM"
  qualifying.sign: ">"
  CC50 at 24 h: 50
- compound: "CCCCC(CC)C(=O)OC(C)C (centres unmarked) [Propan-2-yl 2-ethylhexanoate]"
  uom: "µM"
  qualifying.sign: ">"
  CC50 at 24 h: 90
- compound: "CC(Cc1cccc(C(F)(F)F)c1)NCCOC(=O)c1ccccc1 (centres unmarked) [Benfluorex hydrochloride]"
  uom: "µM"
  qualifying.sign: "="
  CC50 at 24 h: 27.3
- compound: "N#Cc1c[nH]cc1-c1cccc2c1OC(F)(F)O2 [Fludioxonil]"
  uom: "µM"
  qualifying.sign: "="
  CC50 at 24 h: 35.9
- compound: "COc1cccc(CCc2ccccc2OCC(CN(C)C)OC(=O)CCC(=O)O)c1 (centres unmarked) [Sarpogrelate hydrochloride]"
  uom: "µM"
  qualifying.sign: "="
  CC50 at 24 h: 17.2

###

- Test system: GH3-TRE-Luc cell line
- condition.info: read-out: AC50 (uM) modified / 1000; Tox21_110001=Tox21_202416; viability, 1 nM T3 present, 24 h
measured.parameter: CC50 (µM)

- compound: "CN(C)c1ccc(C(=O)c2ccc(N(C)C)cc2)cc1 [Michler's ketone]"
  target.system: "GH3-TRE-Luc cell line"
  measured.parameter: "CC50"
  assay.result: 2.74

###

Each record here notes measured CC50 at 24 h.
- assay.notes: in vitro
- condition.info: rat, gh3-tre-luc cells, AC50 (uM) modified / 1000
Counter-ions that a name gives are not always drawn.
measured.parameter: CC50 at 24 h

- molecule: "CNCCC(Oc1ccc(C(F)(F)F)cc1)c1ccccc1 (stereo not drawn) [Fluoxetine hydrochloride]"
  assay.result: "10.3 µM"
- molecule: "C/C=C/C(=O)O [2-Butenoic acid]"
  assay.result: "> 90 µM"
- molecule: "CC(=O)Nc1ccn(C2COC(COC(=O)c3ccccc3)O2)c(=O)n1 (stereo not drawn)"
  assay.result: "> 50 µM"
- molecule: "C[C@@H]1C[C@H]2[C@@H]3CCC4=CC(=O)C=C[C@]4(C)[C@@]3(F)[C@@H](O)C[C@]2(C)[C@@]1(O)C(=O)CO [Dexamethasone]"
  assay.result: "> 90 µM"
- molecule: "C/C=C(\\C)C(=O)OCC/C=C\\CC"
  assay.result: "> 90 µM"
- molecule: "CCCN(C1CCN(C(=O)C2CCNCC2)CC1)[C@@H]1CCc2ccc(OC)cc2C1 [PharmaGSID_48509]"
  assay.result: "69.1 µM"
- molecule: "CC[C@@H](CO)NCCN[C@@H](CC)CO [Ethambutol dihydrochloride]"
  assay.result: "> 20 µM"
- molecule: "CC(C)(O)C#CC(C)(C)O [2,5-Dimethyl-3-hexyne-2,5-diol]"
  assay.result: "> 90 µM"
- molecule: "CCOc1ccc([N+](=O)[O-])cc1 [1-Ethoxy-4-nitrobenzene]"
  assay.result: "39.1 µM"

Origin of the recorded values: paper PMC6792352
